The origin of these recorded values is paper PMC11790914.

- Tested on: NF-κB activity in HEK293 NF-κB reporter cells
- METHOD SUMMARY: NF-kB activity assay (GFP reporter, ionomycin/PMA)
- Assay type: cell-based
- EXPERIMENTAL SETUP: 1 µM, 1,5 h, n=3
OUTCOME MEASURE: Mean NFκB response

Reference set (5 entries):
INSERT INTO results (compound, result) VALUES
  ('CC[C@@H]1Cc2cc(O)ccc2C2=C1c1ccc(O)cc1C[C@H]2CC [(R,R)-THC]', '3557.96 GFP+-cells/confluence ∙ 1000'),
  ('COc1cc(/C=C(\C#N)C(=O)Nc2nnc(C(F)(F)F)s2)ccc1OCc1ccc(C(F)(F)F)cc1C(F)(F)F', '3626.75 GFP+-cells/confluence ∙ 1000'),
  ('CC(=O)O[C@]1(C(C)=O)CC[C@H]2[C@@H]3CCC4=CC(=O)CCC4=C3[C@@H](c3ccc(N(C)C)cc3)C[C@@]21C [Ulipristal acetate]', '2644.31 GFP+-cells/confluence ∙ 1000'),
  ('N#Cc1ccc(N2N=C3c4ccc(C(=O)O)cc4CC[C@@H]3[C@@H]2C2CCCC2)cc1Cl', '2659.67 GFP+-cells/confluence ∙ 1000'),
  ('CC(=O)OCC(=O)[C@@]1(O)CC[C@H]2[C@@H]3CCC4=CC(=O)CC[C@]4(C)[C@@]3(F)[C@@H](O)C[C@@]21C [Fludrocortisone acetate]', '3820.94 GFP+-cells/confluence ∙ 1000');

// next item, Mean NFκB response requested
Task: Mean NFκB response lookup needed for C[C@H]1C[C@H]2[C@@H]3CCC4=CC(=O)C=C[C@]4(C)[C@@]3(Cl)[C@@H](O)C[C@]2(C)[C@@]1(O)C(=O)CO , thanks.
Result: 2314.11 GFP+-cells/confluence ∙ 1000
